Data provenance is ChEMBL document CHEMBL1158459.

Experiment: AUC in C57BLKS/J-m+/+Leprdb db/db mouse at 10 mg/kg, po once daily for 11 days
Format: ADME, organism-based
Design: dose 10 mg/kg, route oral
Settings: plasma
Answer each item with its documented AUC at 264 h.
Field: numeric (µM·h). Do not append units.

Data request: Give reported AUC at 264 h value for CCc1ccc(CCOc2ccc(CC3SC(=O)NC3=O)cc2)nc1 (configuration not stated)
Data returned: 180

Data request: Quote AUC at 264 h reported for CC[C@@H](Oc1cccc(Cn2c(C)c(C(=O)c3ccc(Cl)cc3)c3ccc(OC(F)(F)F)cc32)c1)C(=O)O please.
Data returned: 9.6
